Source listed as patent US20110301335A1.

- EXPERIMENTAL_TARGET: T1, human TNFR1 on MRC-5 cells (human, UniProt P19438 30-455)
- T1 sequence (looked up): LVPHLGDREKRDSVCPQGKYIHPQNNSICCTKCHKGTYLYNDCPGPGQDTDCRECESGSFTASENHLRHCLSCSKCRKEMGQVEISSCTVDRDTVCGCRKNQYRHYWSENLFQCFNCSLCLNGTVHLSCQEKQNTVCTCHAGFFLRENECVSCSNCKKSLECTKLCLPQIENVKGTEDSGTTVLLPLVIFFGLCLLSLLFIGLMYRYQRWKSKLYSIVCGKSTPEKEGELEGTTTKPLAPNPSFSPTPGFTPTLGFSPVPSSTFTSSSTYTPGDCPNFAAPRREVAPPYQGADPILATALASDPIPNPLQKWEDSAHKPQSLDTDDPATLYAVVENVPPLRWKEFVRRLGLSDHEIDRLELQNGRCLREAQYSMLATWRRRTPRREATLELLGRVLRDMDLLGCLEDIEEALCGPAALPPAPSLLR
- TEST: cell-based or functional assay
ASSAY_METRIC: MRC5 (ND50 in nM)
Numbers only here, please. The scale is nM.

Request: Annotate the binder DMS0111 (bispecific antibody) EVQLLESGGGLVQPGGSLRLSCAASGFTFVKYSMGWVRQAPGKGLEWVSQISNTADRTYYAHSVKGRFTISRDNSKNTLYLQMNSLRAEDTAVYYCAIYTGRWVPFEYWGQGTLVTVSSASTDIQMTQSPSSLSASVGDRVTITCRASRPIGTTLSWYQQKPGKAPKLLILWNSRLQSGVPSRFSGSGSGTDFTLTISSLQPEDFATYYCAQAGTHPTTFGQGTKVEIKR with its measured MRC5 (ND50 in nM).
Result: 1.6
